FYI, the data here is from ChEMBL document CHEMBL1932989.

- targetUnderTest: Histamine H3 receptor (Homo sapiens, UniProt Q9Y5N1)
- Sequence (Q9Y5N1 whole entry): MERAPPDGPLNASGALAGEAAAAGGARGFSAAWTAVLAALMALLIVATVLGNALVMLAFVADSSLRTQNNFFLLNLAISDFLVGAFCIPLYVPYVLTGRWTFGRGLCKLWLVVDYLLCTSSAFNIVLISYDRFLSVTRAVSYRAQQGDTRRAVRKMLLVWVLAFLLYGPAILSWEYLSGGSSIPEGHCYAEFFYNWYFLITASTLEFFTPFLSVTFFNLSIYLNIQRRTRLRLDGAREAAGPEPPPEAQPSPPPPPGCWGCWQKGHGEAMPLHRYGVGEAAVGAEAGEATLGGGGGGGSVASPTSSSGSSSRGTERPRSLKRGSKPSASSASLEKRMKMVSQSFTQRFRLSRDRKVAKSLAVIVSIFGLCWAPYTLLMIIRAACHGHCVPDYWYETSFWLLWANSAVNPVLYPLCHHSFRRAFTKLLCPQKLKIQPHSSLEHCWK
- assayProtocol: Displacement of [3H]RAMHA from human histamine H3 receptor expressed in GPCR97 transfected human SK-N-MC cells
- Format: cell-based
pKi: −log10 of the molar value.
metric: pKi

# annotated cases, reported pKi shown
COCCC[C@H](c1ccc(-c2ccc(CN3CCCCC3)cc2)cc1)N1CCC[C@@H]1C
8.70
C[C@H]1CCCN1[C@@H](CCCOc1ccccc1)c1ccc(-c2ccc(CN3CCCCC3)cc2)cc1
8.59
COc1ccc(OCCC[C@@H](c2ccc(-c3ccc(CN4CCCCC4)cc3)cc2)N2CCC[C@@H]2C)cc1
8.69
C[C@H]1CCCN1[C@H](CCCOc1ccccc1)c1ccc(-c2ccc(CN3CCCCC3)cc2)cc1
9.29
c1ccc(CC(c2ccc(-c3ccc(CN4CCCCC4)cc3)cc2)N2CCCCC2)cc1 (racemic)
7.72
CN(C)C(Cc1ccccc1)c1ccc(-c2ccc(CN3CCCCC3)cc2)cc1 (racemic)
7.78
C[C@@H]1CCCN1Cc1ccc(-c2ccc(C(Cc3ccccc3)N3CCCCC3)cc2)cc1 (mixture of isomers)
8.25

(1) CCCC[C@H](c1ccc(-c2ccc(CN3CCCCC3)cc2)cc1)N1CCCC[C@@H]1C
(2) CCCCC(c1ccc(-c2ccc(CN3CCCCC3)cc2)cc1)N1CCCCC1 (racemic)
Which entry shows the lesser value of pKi here, 1 or 2 ? State your choice using its label.
1
(1: 8.52, 2: 8.89)
